System Tested: T1, extracellular domain polypeptide of a recombinant B7-H3 variant 2 antigen (R&D Systems, Inc., #2318-B3-050/CF) (human, UniProt Q5ZPR3 29-466)
T1 construct: Bought recombinant protein; also called recombinant B7-H3 antigen; B7-H3 antigen
T1 sequence: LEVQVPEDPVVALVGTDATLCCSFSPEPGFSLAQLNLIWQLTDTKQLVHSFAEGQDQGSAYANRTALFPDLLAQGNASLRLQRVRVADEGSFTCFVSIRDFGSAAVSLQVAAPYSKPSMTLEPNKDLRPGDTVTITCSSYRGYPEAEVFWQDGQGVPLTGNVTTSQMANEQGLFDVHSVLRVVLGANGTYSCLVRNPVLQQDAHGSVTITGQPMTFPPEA
Method Description: SPR (Biacore), antibody captured on anti-human IgG, B7-H3 variant 2 extracellular domain as analyte
Method: The binding property of the humanized M30 antibody to human B7-H3 which is an antigen was measured by a surface plasmon resonance (SPR) device (Biacore, Inc.). […] Thereafter, an extracellular domain polypeptide of the B7-H3 variant 2 antigen (manufactured by R&D Systems, Inc., #2318-B3-050/CF) was added thereto at different concentrations, and the amount of the antigen bound to the antibody in a running buffer (phosphate buffer, 0.05% SP20) was measured over time. […]
# Kd listing for each entry below
Answer with a number only, understood to be in nM.

The cases that follow already have their Kd on record.
humanized M30 antibody M30-H1-L3 (antibody, human IgG1, kappa, V domains shown, Human IgG1/kappa) VH: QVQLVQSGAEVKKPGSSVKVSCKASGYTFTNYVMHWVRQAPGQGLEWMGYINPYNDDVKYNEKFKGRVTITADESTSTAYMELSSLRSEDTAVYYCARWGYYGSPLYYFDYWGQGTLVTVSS VL: QIVLSQSPATLSLSPGERATLTCRASSRLIYMHWYQQKPGSAPKLWIYATSNLASGIPARFSGSGSGTSYTLTISRLEPEDFAVYYCQQWNSNPPTFGQGTKVEIKR
100
humanized M30 antibody M30-H4-L1 (antibody, human IgG1, kappa, V domains shown, Human IgG1/kappa) VH: EVQLVQSGAEVKKPGSSVKVSCKASGYTFTNYVMHWVKQAPGQGLEWIGYINPYNDDVKYNEKFKGKATQTSDKSTSTAYMELSSLRSEDTAVYYCARWGYYGSPLYYFDYWGQGTLVTVSS VL: EIVLTQSPATLSLSPGERATLSCRASSRLIYMHWYQQKPGQAPRLLIYATSNLASGIPARFSGSGSGTDFTLTISRLEPEDFAVYYCQQWNSNPPTFGQGTKVEIKR
130

The record that follows has no Kd shown yet.
Task: Find the measured Kd of humanized M30 antibody M30-H4-L4 (antibody, human IgG1, kappa, V domains shown, Human IgG1/kappa) VH: EVQLVQSGAEVKKPGSSVKVSCKASGYTFTNYVMHWVKQAPGQGLEWIGYINPYNDDVKYNEKFKGKATQTSDKSTSTAYMELSSLRSEDTAVYYCARWGYYGSPLYYFDYWGQGTLVTVSS VL: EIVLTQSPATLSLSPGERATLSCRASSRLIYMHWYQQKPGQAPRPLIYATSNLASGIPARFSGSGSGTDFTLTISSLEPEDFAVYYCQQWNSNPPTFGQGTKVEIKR and report it.
Output: 12

The measurements presented in this section are drawn from patent US20130078234A1.
